# Tested on: RXRa DBDmut IVT, anti-RXR (DBD mutation: RXRa K156A/R161A, NR concentration 90 nM)
# Experimental details: PBM binding z-score (relative to random genomic background probes); higher = stronger binding; sequences stand for … in GC…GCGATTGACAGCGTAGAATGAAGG
# if value of PBM binding z-score reaches 2, tag Met; if it stays below, tag Not met

GCGACTGGGGCACCAGCAGGTTACCATAACTTAA = Not met
CGTCAAAGTTCAAGGTAACCTAACAGAAAGCAGC = Met
CGAACGAGGGCATGAGTTGATAGTAAATGCCGAT = Met
AGACTGAGGTTATACGTAGATCAGGGAAGAAAGT = Not met

Reported PBM binding z-score at or above 2? `AGAACGAGGGCAATGAGGTGATAGCACGGGTGGC` Not met

Is PBM binding z-score for `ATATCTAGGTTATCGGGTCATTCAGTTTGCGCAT` at or above 2? Not met

# bool: PBM binding z-score of `ACTATTAGGTGAGACGAGGGCAACCGATAGGTTG` >= 2 Not met

###

# Test system: PPARg:RXRa 270nM:90nM, anti-RXR (NR concentration 270 nM, RXRa partner concentration 90 nM)
# Experimental details: PBM binding z-score (relative to random genomic background probes); higher = stronger binding; sequences stand for … in GC…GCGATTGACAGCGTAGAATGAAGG
# PBM binding z-score listing for each entry below
Provide a numeric answer; units are not to be included.

Field: example entries. Status: answers known.
CCTACTGGGCCATTCAGAAGTCATTGATCATATG = 0.341
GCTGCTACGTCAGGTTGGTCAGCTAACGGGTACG = -0.954
ATCTCTAGGTAAGACTCAGTTCTGTGAAGAACGC = -0.0102
CAAACCAGGTCACCGGAAGGTCAAAGTCCGCATG = 6.92
GGACCGAGGGCAAAGTTGATAGCATCTGTCGACG = 4.82
TCTCGGAGGACACGAAGGTCAGATCTTTCCAGAG = 1.77
ATCTCTAGGTAACAAGTACAGTGAAAGAGAGGAC = 1.36
CATACTGGGCCACGAAAGGTCATTGATTCAGTGA = 4.67

// next item, PBM binding z-score requested
Endpoint output: PBM binding z-score of `CGTCCAGGGTCAAAGGTCAGTGAAGAGATGACGG` . Value? 8.6

###

The sequences listed here are annotated with their PBM binding z-score.
# System: RXRa homodimer (NR concentration 180 nM)
# Experimental details: PBM binding z-score (relative to random genomic background probes); higher = stronger binding; sequences stand for … in GC…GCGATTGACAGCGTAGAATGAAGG

Worked examples follow.
AGTCAAAGTTCAGGACGAGCTAACGTAAAGCACG = 2.83
GCGACTGGGGCAAAGCAGGTGACCATAAGGTTGG = 0.188
CCGACTGGGGCATAAGGTTGCCATAAGCCAGCCC = -0.0266
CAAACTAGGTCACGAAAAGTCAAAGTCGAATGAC = 3.85
CCTGCTGGGCCAAAGGTCATTGATTCCAATGCTC = 6.37

// map `CCGACTGGGGCAAATGTTACCATACTCAGTACGA` to recorded PBM binding z-score (system: RXRa homodimer (NR concentration 180 nM)) 0.184

Fill in the recorded PBM binding z-score for this sequence, with RXRa homodimer (NR concentration 180 nM) as test system: `AGAATGAGGTTACCAAAGAACAGGGAAACGCTTG` 2.36

Fill in the recorded PBM binding z-score for this sequence, with RXRa homodimer (NR concentration 180 nM) as test system: `ATATGTAGGTTTCATCCGGGTCATTCAGGCTATG` 2.07

Look up PBM binding z-score with RXRa homodimer (NR concentration 180 nM) for this sequence: `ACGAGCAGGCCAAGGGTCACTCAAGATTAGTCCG` 4.07

Lab note: need PBM binding z-score with RXRa homodimer (NR concentration 180 nM) for entry `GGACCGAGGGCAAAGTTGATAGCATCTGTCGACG` , please look it up. 2.15

PBM binding z-score of `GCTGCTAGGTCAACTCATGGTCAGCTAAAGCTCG` on RXRa homodimer (NR concentration 180 nM)? 2.86

Origin of the recorded values: the supplement of paper PMC6555819
